Entries and their protein stability index
B1: CAMK2D (parent)
chain: IVRLHDSISEEGFHYLVFDLVTGG

# Variants of: B1
# PROCEDURE DETAILS: protein stability index of a GFP-peptide fusion (GPS, HEK-293T) (PSI 1-6); higher = more stable;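 also: lentivirally expressed fusions sorted by FACS into six bins by GFP to DsRed ratio, PSI derived from sequencing read proportions per bin multiplied by bin number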
# CONDITION LABEL: c terminus: a fixed tail appended
MEASURE: protein stability index

• L16T = 1.21
• G24R = 2.09
• E11N = 3.39
• I8R = 1.65
• G23Y = 4.01
• S7L = 2.56
• H5R = 2.39
• G12V = 3.05
• E10T = 3.29
• F13Q = 1.37
• G23T = 3.2
• D6T = 4.86
• V17P = 2.04
• S9G = 1.99
• L20Q = 2.52
• I8A = 2.21
• S7E = 2.24
• H14C = 2.29
• H14K = 2.2
• V21M = 1.93
• L16F = 2.76
• D19M = 3.68
• G12W = 3.89
• G24S = 2.88
• L4R = 1.62
• Y15W = 2.7
• G24F = 1.57
• F18P = 2.13
• V2K = 1.51
• V17W = 2.39
• I1F = 1.06
• I1T = 2.07
• L20P = 1.86
• L16C = 2.49
• L4T = 1.29
• S7W = 2.25
• V17E = 1.69
• G23V = 2.43
• S9F = 1.94
• E11F = 3.42
• I1S = 3.07
• V21N = 4.11
• G24D = 2.26
• D19S = 4.24
• L20A = 2.13
• T22S = 2.67
• V17G = 3.58
• H5D = 2.94
• D19T = 1.62
• G23P = 3.1
• V17H = 2.93
• Y15S = 1.06
• I8T = 2.61
• V2Y = 3.12
• S7N = 3.29
• I1N = 1.75
• I8N = 3.02
• H14P = 2.79
• D19W = 1.91
• G23L = 2.92
• R3S = 1.57
• G24M = 3.78
• E10Y = 2.83
• L20R = 2.04
• L20Y = 2.67
• L16G = 2.17
• G23N = 2.49
• L20V = 3.87
• H5Y = 3.23
• I8C = 2.85
• L20H = 1.35
• V21A = 1.11
• E10K = 2.7
• G23Q = 2.59
• T22K = 3.31
• L4S = 1.9
• G23W = 2.89
• G12P = 2.31
• I8K = 2.4
• R3G = 2.41
• F18H = 1.63
• Y15A = 2.98
• S7Q = 2.4
• T22C = 3.58
• E10H = 3.04
• Y15N = 2.46
• D19A = 1.87
• I1E = 2.24
• S7G = 1.96
• I1K = 2.05
• S9D = 2.36
